# Lookup of reported pIC50 keyed by entry
# ASSAYED_SYSTEM: T1, human M-CSF (human, UniProt P09603 33-190)
# T1 chain: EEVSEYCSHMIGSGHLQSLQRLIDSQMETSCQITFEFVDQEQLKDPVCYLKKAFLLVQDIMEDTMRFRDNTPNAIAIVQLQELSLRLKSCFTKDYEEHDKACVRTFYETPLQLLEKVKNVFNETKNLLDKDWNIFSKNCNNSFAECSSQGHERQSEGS
# TEST_DETAILS: receptor binding inhibition: antibody titrated against 125I-M-CSF binding to c-fms on cells (NIH-3T3/human c-fms or M-NSF-60)
Kindly note that pIC50 refers to -log10 of the concentration in mol/L and answer with the value alone.

BINDER	pIC50
monoclonal antibody 88 (antibody, human IgG2, kappa, V domains shown) VH: EVQLVESGGGLVQPGGSLRLSCAASGFTFSSYWMSWVRQAPGKGLEWVANIKQDGSEKYYVDSVKGRFTISRDNAKNSLYLQMNSLRAEDTAVYYCAPGIAAAGRAYWGQGTLVTVSS VL: DIQMTQSPSSLSASVGDRVTITCRPSQDISSYLNWYQQKPGKAPKLLIYAASSLQSGVPLRFSGSGSGTDFTLTISSLQPEDFATYYCQQSYSTPFTFGPGTKVDIKR	9.35

Now take the following binder into account.
INPUT: Consider the binder monoclonal antibody 2.7.3 (antibody, human IgG4, kappa, V domains shown) VH: QVQLVESGGGVVQPGRSLRLSCAASGFTFSSYGMHWVRQAPGKGLEWVAFIWYDGSNKYYADSVKGRFTISRDNSKNTLYLQMNSLRAEDTAVYYCARGYRVYFDYWGQGTLVTVSS VL: DIQMTQSPSSVSASVGDRVTITCRASQDISSWLAWYQRKPGKAPKLQIYAASSLESGVPSRFNGSGSGTDFTLSISSLQPEDFATYYCQQTNSFPLTFGGGTKVEIKR and give its measured pIC50.
OUTPUT: 9.51
